Target: human MCH receptor expressed from the open reading frame cDNA SEQ. ID. NO. 1 in 293-AEQ17 cells (human, UniProt Q99705 1-353)
Sequence (Q99705 whole entry): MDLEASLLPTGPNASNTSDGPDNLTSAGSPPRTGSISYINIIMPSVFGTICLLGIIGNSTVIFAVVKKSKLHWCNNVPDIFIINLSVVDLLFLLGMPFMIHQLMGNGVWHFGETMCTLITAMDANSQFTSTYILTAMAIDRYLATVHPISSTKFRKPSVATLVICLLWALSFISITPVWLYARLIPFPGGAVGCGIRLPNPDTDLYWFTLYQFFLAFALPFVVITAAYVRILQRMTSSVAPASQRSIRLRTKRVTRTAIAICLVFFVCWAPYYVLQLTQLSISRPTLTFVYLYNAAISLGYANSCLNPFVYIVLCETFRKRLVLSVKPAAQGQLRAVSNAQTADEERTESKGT
Assay: cell-based or functional assay
Bridges are numbered along the chain shown (N, C = ends). Where no end group is shown, it is not given here.
Observable: Activation % (%)
Express your answer in %, writing the number without its unit.

{"Binder": "Ac-RCMLGRVFRPC-NH2 (disulfide 2-11; SMILES CSCC[C@@H]1NC(=O)[C@@H](NC(=O)[C@H](CCCNC(=N)N)NC(C)=O)CSSC[C@@H](C(N)=O)NC(=O)[C@@H]2CCCN2C(=O)[C@H](CCCNC(=N)N)NC(=O)[C@H](Cc2ccccc2)NC(=O)[C@H](C(C)C)NC(=O)[C@H](CCCNC(=N)N)NC(=O)CNC(=O)[C@H](CC(C)C)NC1=O, ID; NO; 7 peptide; MCH position numbering) [MCH analog SEQ. ID. NO. 62 (position 13: Phe)]", "Activation % (%)": 96}
{"Binder": "RCMLGRVXRPC (Phe(pNH2) at position 13; N-terminal acetyl, C-terminal amide, Cys-Cys disulfide as in SEQ. ID. NO. 7) [MCH analog SEQ. ID. NO. 67 (position 13: Phe(pNH2))]", "Activation % (%)": 88}
{"Binder": "RCMLGRVXRPC ((2′)-naphthylalanine at position 13; N-terminal acetyl, C-terminal amide, Cys-Cys disulfide as in SEQ. ID. NO. 7) [MCH analog SEQ. ID. NO. 65 (position 13: (2′)Nal)]", "Activation % (%)": 105}

The reported Activation % of the binder RCMLGRVXRPC (p-fluoro-phenylalanine at position 13; N-terminal acetyl, C-terminal amide, Cys-Cys disulfide as in SEQ. ID. NO. 7) [MCH analog SEQ. ID. NO. 66 (position 13: Phe(pF))] was 98

The reported Activation % of the binder Ac-RCMLGRVHRPC-NH2 (disulfide 2-11; SMILES CSCC[C@@H]1NC(=O)[C@@H](NC(=O)[C@H](CCCNC(=N)N)NC(C)=O)CSSC[C@@H](C(N)=O)NC(=O)[C@@H]2CCCN2C(=O)[C@H](CCCNC(=N)N)NC(=O)[C@H](Cc2c[nH]cn2)NC(=O)[C@H](C(C)C)NC(=O)[C@H](CCCNC(=N)N)NC(=O)CNC(=O)[C@H](CC(C)C)NC1=O, ID; NO; 7 peptide; MCH position numbering) [MCH analog SEQ. ID. NO. 64 (position 13: His)] was 66

The reported Activation % of the binder Ac-RCMLGRVWRPC-NH2 (disulfide 2-11; SMILES CSCC[C@@H]1NC(=O)[C@@H](NC(=O)[C@H](CCCNC(=N)N)NC(C)=O)CSSC[C@@H](C(N)=O)NC(=O)[C@@H]2CCCN2C(=O)[C@H](CCCNC(=N)N)NC(=O)[C@H](Cc2c[nH]c3ccccc23)NC(=O)[C@H](C(C)C)NC(=O)[C@H](CCCNC(=N)N)NC(=O)CNC(=O)[C@H](CC(C)C)NC1=O, ID; NO; 7 peptide; MCH position numbering) [MCH analog SEQ. ID. NO. 63 (position 13: Trp)] was 83

The reported Activation % of the binder RCMLGRVXRPC (Cha (cyclohexylalanine) at position 13; N-terminal acetyl, C-terminal amide, Cys-Cys disulfide as in SEQ. ID. NO. 7) [MCH analog SEQ. ID. NO. 69 (position 13: Cha)] was 93

The reported Activation % of the binder DFDMLRCMLGRVYRPCWQV (disulfide 7-16) [mammalian MCH (SEQ. ID. NO. 11)] was 100

The reported Activation % of the binder Ac-RCMLGRVYRPC-NH2 (disulfide 2-11 (inferred), Corresponds to MCH positions 6-16; also called ID; NO; 7 MCH analog) [truncated MCH analog SEQ. ID. NO. 7: Ac-Arg-Cys-Met-Leu-Gly-Arg-Val-Tyr-Arg-Pro-Cys-amide] was 99
